Provide the reported GI50 of each item.
- System: OVCAR-5
- protocolDetails: NCI tumour cell line growth inhibition, 48 h
Calls of active or inactive are those of the source. Rule as the data show it: active = GI50 up to about 1.1 µM and inactive = higher.

So what's the measured GI50 for this one? `Cc1cc(S(=O)(=O)Nc2nc(N)n[nH]2)c(Cl)cc1Cl` > 10 µM (inactive)

Form field: reported GI50 of COC(=O)[C@]1(c2cc3ccccc3n2S(=O)(=O)c2ccccc2)CC2CCC1NC2 (stereo not given in full) 16.1 µM (inactive)

Name the recorded GI50 for COc1nc(NC2OCC(OC(C)=O)C(OC(C)=O)C2OC(C)=O)c(/N=C\C=N\c2c(NC3OCC(OC(C)=O)C(OC(C)=O)C3OC(C)=O)nc(OC)n(C)c2=O)c(=O)n1C (stereo not given) . > 100 µM (inactive)

What measured GI50 goes with `C=CCN1C(=O)/C(=C/c2ccc(C)cc2)NC1=S` ? > 100 µM (inactive)

// returns reported GI50 for input `COc1cc(/C=N/c2nc3cc4sc(/N=C/c5cc(OC)c(OC)c(OC)c5)nc4cc3s2)cc(OC)c1OC` > 100 µM (inactive)

* * *

- Tested on: HOP-62
- protocolDetails: NCI tumour cell line growth inhibition, 48 h
Activity calls are given as the source filed them. No stated cut-off is given here; in the data, active = GI50 up to about 1.1 µM and inactive = higher.
Choose one outcome from this list and give only that: yes (1) for active, no (0) for inactive

Hey, what did the test say about CCCCCCC1CC(=O)C1(Cl)Cl (stereo not drawn) ? no (0)

Lab log entry: `Cc1cc2c3ccccc3n(C)c2c2c1C(=O)c1ccccc1C2=O` — outcome as called in the assay? no (0)

# fetch the recorded call for `CC(C)=CCOC(=O)C(C)=[N+]=[N-]` here no (0)

Per the records of this test, what outcome belongs to `CC(=O)/C=C/c1ccc(C)cc1` ? no (0)

What outcome does the record of this test show for CC(=O)Nc1ccc(C(O)/C(=N/N)c2nc3ccc(Cl)cc3nc2O)cc1 (stereo not drawn) ? no (0)

Which outcome was entered for the compound `Cc1noc(C)c1CCCOC1COc2ccccc2OCCOCCOc2ccccc2OC1` in this test? no (0)

Answer briefly: the call reported for `CCOC(=O)c1c(C)n(Cc2ccc(Cl)cc2Cl)c2c1cc(O)c1[nH]c3c(c12)CCCC3` in this assay. no (0)

Assay outcome for `CCOC(=O)CC1=N/C(=N/c2cc(Cl)ccc2Cl)SC1` : what was it? no (0)

Dear colleague, could you share the recorded outcome for `COc1c(C)c2nc3ccccc3nc2c2c(O)ccnc12` when you have a moment? no (0)

Please let me know the test result on file for `COC(=O)[C@@H](NC(=O)N(Cc1ccccc1)C[C@H](CC(C)C)NC(=O)[C@@H](NC(=O)OC(C)(C)C)C(C)C)C(C)C` . no (0)

Could you kindly confirm the outcome this assay logged for `COc1ccc2[nH]cc(C=C3C(=O)NC(=S)NC3=O)c2c1` ? no (0)

Please state the recorded outcome for this compound: C=C1C(C(=O)OC)[C@H]1C(=O)OC (stereo partly drawn) no (0)

Field: outcome | Entry: `COc1ccc(C2=C3SC=c4ccccc4=C3ON=C2c2ccccc2)cc1` no (0)

Please indicate how the test categorized CC(C)N(C(=O)C12C3C4C1C1C2C3C41C#N)C(C)C (stereo not drawn) . no (0)

Could you check what this test reported for CC(=O)OC1CC2c3cccc4c3C(CC2N(C)C1=O)CN4C(=O)c1ccccc1 (stereo not drawn) ? no (0)

What call does the record list for `CN1CCc2c(sc3nc(S)nc(S)c23)C1` ? no (0)

Please let me know the test result on file for `CC(=O)/N=C1\NC(=O)/C(=C/c2ccc(Cl)cc2Cl)N1C` . no (0)

Assay outcome for COC(=O)c1ccc2c(c1)C(NC(C)=O)CCc1cc(OC)c(OC)c(OC)c1-2 (stereo not drawn) : what was it? yes (1)

Per the assay record, what outcome was assigned to `C/C=C/c1cc2c(c(=O)o1)C(=O)[C@@H](O)[C@H](C)O2` ? no (0)

// return assay outcome for `CN(C)Cc1cc(C(=O)/C=C/c2cccc(Cl)c2)cc(CN(C)C)c1O` no (0)

Would you mind telling me which call this test gave Nc1ccc(C(=O)NN2C(=O)C(Cl)C2c2ccccc2O)cc1 (stereo not drawn) ? no (0)

Can you look up the reported call for `CCc1ccc(/N=C\c2cc(OC)c(OC)c(OC)c2)cc1` for me? no (0)

I'd appreciate the recorded outcome for `CN(C)c1ccc(C(=N/N=C2\C(=O)Nc3ccccc32)c2ccc(N(C)C)cc2)cc1` from this test. yes (1)
